Target: Mu-type opioid receptor (Rattus norvegicus, UniProt P33535)
Sequence (P33535 whole entry): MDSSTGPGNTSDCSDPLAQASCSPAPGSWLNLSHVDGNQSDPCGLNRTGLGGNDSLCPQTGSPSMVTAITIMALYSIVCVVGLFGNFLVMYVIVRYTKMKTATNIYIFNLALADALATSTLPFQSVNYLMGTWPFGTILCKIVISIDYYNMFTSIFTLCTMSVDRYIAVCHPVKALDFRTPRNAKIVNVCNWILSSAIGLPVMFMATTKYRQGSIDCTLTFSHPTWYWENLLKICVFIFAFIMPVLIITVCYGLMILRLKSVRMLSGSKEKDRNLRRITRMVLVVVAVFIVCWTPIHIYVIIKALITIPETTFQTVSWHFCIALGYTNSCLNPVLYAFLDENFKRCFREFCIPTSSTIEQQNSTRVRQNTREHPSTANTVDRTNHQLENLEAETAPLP
Where a SMILES comes first, the peptide text is derived from it. [ ]: non-standard residue; d: D form. Nva(5,5,5-F3) = N[C@@H](CCC(F)(F)F)C(=O)O
Property label: pIC50
Scale: pIC50 equals -log10([C]), with [C] in mol/L.

## Input # lookup: pIC50 of CSCC[C@H](NC(=O)[C@H](Cc1ccccc1)NC(=O)CNC(=O)[C@H](CCC(F)(F)F)NC(=O)[C@@H](N)Cc1ccc(O)cc1)C(N)=O (H-Y[Nva(5,5,5-F3)]GFM-NH2)
## Output 9.30

====

Target: Kappa-type opioid receptor (Cavia porcellus)
Sequence (P41144 whole entry): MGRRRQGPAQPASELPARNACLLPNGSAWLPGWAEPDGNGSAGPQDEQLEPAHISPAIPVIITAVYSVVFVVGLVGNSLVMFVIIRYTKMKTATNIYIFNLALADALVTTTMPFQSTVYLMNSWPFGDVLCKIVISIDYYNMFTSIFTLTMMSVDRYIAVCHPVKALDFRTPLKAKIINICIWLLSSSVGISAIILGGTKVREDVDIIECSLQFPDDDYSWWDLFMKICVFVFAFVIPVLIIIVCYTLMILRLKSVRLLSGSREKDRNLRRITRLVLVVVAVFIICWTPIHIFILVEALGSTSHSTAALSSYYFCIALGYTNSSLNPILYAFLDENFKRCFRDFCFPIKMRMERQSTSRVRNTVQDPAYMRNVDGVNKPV
Test: Compound was evaluated for its binding affinity against enkephalin kappa receptor using [3H]U-69593 as ligand in guinea pig cerebrum in vitro
Where a SMILES comes first, the peptide text is derived from it. [ ]: non-standard residue; d: D form. Nva(5,5,5-F3) = N[C@@H](CCC(F)(F)F)C(=O)O
Property label: IC50 (nM)
Answer with a number only, understood to be in nM.

## Input Field: IC50 (Kappa-type opioid receptor (Cavia porcellus)). Entry: CSCC[C@H](NC(=O)[C@H](Cc1ccccc1)NC(=O)CNC(=O)[C@H](CCC(F)(F)F)NC(=O)[C@@H](N)Cc1ccc(O)cc1)C(N)=O (H-Y[Nva(5,5,5-F3)]GFM-NH2)
## Output 400
